Give protein stability index for every item shown.
B1: CIB1 (parent)
chain: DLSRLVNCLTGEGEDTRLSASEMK

- Variants of: B1
- Protocol: protein stability index of a GFP-peptide fusion (GPS, HEK-293T) (PSI 1-6); higher = more stable;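 further: lentivirally expressed fusions sorted by FACS into six bins by GFP to DsRed ratio, PSI derived from sequencing read proportions per bin multiplied by bin number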
- Setup Conditions: c terminus: a fixed tail appended
Please state the value as a number alone, without comment.

Ask | State its protein stability index for this variant: G13P
Reply | 3.03

Ask | State its protein stability index for this variant: E22Y
Reply | 3.08

Ask | State its protein stability index for this variant: K24C
Reply | 3.03

Ask | State its protein stability index for this variant: K24N
Reply | 2.99

Ask | State its protein stability index for this variant: L18S
Reply | 3.06
